# Target System: T1, HLA-A*0201 molecule expressed on human T2 cells (human)
# T1 construct: surface HLA-A2 detected with anti-HLA-A2-PE (clone REA517); also called HLA-A2
# Test: T2 cell HLA-A*0201 binding assay, anti-HLA-A2-PE flow cytometry
Measured Attribute: mean relative fluorescence intensity at 0.1 µM peptide

Binder | Value Observed
YLYDVRTAL (also called ENT168_B2) [UBE2C-B11] | 6.6 % of HIV pol reference peptide
SLDQKLFQL [ANKRD30A-H3] | 5.9 % of HIV pol reference peptide
AVIGIVAAV (also called ENT190_B1) [OR51E2-B1] | 3.5 % of HIV pol reference peptide
IVWSDVTYV (also called ENT187_B1) [MMP11-B1] | 19.8 % of HIV pol reference peptide
ALYDVRTILL (also called UBEC2-H11; ENT168-HL) [UBE2C-H11] | 4.2 % of HIV pol reference peptide
LILDTVHSL (also called ENT174_B1) [ANKRD30A-B2] | 1.7 % of HIV pol reference peptide
YLSGANLFV (also called CEACAM-B1; ENT188_B1) [CEACAM5-B1] | 7.7 % of HIV pol reference peptide
KILDTVHSC [ANKRD30A-H2] | 1.2 % of HIV pol reference peptide
